Assay: self-splicing fitness, log relative to wild type (ln ratio); higher = more splicing; Tetrahymena group I intron in knt gene, E. coli kanamycin selection, DiMSum; sequences stand for … in CUCUCU…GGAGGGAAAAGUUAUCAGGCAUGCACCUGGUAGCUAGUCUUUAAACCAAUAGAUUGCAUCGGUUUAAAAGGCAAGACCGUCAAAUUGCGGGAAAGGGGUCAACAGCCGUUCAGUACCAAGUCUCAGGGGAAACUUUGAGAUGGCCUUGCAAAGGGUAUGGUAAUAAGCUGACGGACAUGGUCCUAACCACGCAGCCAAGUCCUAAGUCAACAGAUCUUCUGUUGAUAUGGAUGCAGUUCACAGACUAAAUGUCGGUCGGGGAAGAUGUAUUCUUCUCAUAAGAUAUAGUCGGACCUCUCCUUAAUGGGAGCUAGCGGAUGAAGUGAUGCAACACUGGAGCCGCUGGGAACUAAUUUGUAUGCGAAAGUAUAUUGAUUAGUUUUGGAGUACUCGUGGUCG;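 also: selection with 25 µg/mL kanamycin versus none on LB agar overnight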
Settings: 37 °C
Metric: self-splicing fitness (ln)

Challenge: Recorded self-splicing fitness (ln) of UCUCAGCAAUAUUACGUUCA , please.
Response given: -1.15

Challenge: Further, for UUAGAGCAAUAUUACGUAAA ?
Response given: 0.396

Challenge: // same read-out, input: UACAAGCAAUAUUACGAGAG
Response given: -2.65

Challenge: Follow-up entry: UUGAAGCAAUAUUACGGAUG
Response given: 0.219

Challenge: Okay, and CUGUAGCAAUAUUACGGACU ?
Response given: -1.83

Challenge: // next record ACAAAGCAAUAUUACGCGGU
Response given: -2.68

Challenge: Follow-up item: CUCGAGCAAUAUUACGGUGA
Response given: -0.793

Challenge: Can you check AGUAAGCAAUAUUACGAUUU next?
Response given: -0.0587

Challenge: # repeat for CGAGAGCAAUAUUACGCUCU
Response given: -2.62

Challenge: Query UUGAAGCAAUAUUACGAGCU next
Response given: -1.02

Challenge: Continue with CUGCAGCAAUAUUACGAGUA
Response given: -2.97

* * *

Experiment: self-splicing fitness, log relative to wild type (ln ratio); higher = more splicing; Tetrahymena group I intron in knt gene, E. coli kanamycin selection, DiMSum; sequences stand for … in CUCUCU…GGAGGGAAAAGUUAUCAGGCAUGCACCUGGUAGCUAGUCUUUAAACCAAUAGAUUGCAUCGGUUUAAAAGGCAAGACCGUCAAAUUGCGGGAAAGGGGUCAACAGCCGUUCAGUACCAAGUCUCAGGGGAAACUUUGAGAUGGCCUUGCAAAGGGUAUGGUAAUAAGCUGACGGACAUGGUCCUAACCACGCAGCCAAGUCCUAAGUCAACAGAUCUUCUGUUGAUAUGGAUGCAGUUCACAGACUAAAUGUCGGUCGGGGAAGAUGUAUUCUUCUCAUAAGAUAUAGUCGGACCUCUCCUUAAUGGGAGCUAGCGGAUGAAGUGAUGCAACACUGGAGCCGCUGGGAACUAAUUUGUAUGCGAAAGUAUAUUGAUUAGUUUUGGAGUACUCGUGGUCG
Details: 30 °C
Metric: self-splicing fitness (ln)
Field format: numeric only.

Challenge: Entry GAGAAGCAAUAUUACGUUUA : reported self-splicing fitness (ln) = ?
Response given: -2.13

Challenge: Again, but for AAGUAGCAAUAUUACGAGAC
Response given: -2.6

Challenge: Please give the result for GUAAAGCAAUAUUACGCGGA too.
Response given: -1.51

Challenge: Next: ACGUAGCAAUAUUACGCUCG
Response given: -2.16

Challenge: Next: CCCCAGCAAUAUUACGGUGA
Response given: -1.76

Challenge: Then this sequence: GCUCAGCAAUAUUACGAGCC
Response given: -3.98

Challenge: What do you have for CACUAGCAAUAUUACGCUCG ?
Response given: -0.657

Challenge: Would you kindly repeat that for ACGUAGCAAUAUUACGAAAG ?
Response given: -3.88

Challenge: Another: CUGCAGCAAUAUUACGACAG
Response given: -2.43

Challenge: Let us now turn to CGUGAGCAAUAUUACGCGGU
Response given: -3.83

Challenge: And the next one, CGUCAGCAAUAUUACGAUGG ?
Response given: -1.27

Challenge: And for AUCAAGCAAUAUUACGCUAA ?
Response given: -2.95
